This collection of values is drawn from paper PMC7429544.

Could you please report measured Kd for the items listed next?
testSystem: Gal-3 CRD (trGal-3) (Homo sapiens, UniProt P17931)
Construct: C-terminal carbohydrate recognition domain only, N-terminal tail proteolytically removed; recombinant from bacteria
Sequence (P17931 114-250 limits assumed): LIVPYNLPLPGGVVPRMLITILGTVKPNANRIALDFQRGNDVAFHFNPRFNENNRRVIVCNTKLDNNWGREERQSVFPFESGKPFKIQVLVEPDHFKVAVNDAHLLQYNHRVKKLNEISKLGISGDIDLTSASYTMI
assaySummary: isothermal titration calorimetry
experimentalSetup: 25 °C, pH 7.2, 20 mM phosphate, 10 mM NaCl, 2 mM β-mercaptoethanol; one-set-of-sites model; lyophilized protein
Source text: isothermal titration calorimetry on Gal-3 CRD (trGal-3)
One number for each entry, in µM.

compound: CC(=O)N[C@H]1C(O)O[C@H](CO)[C@H](O)[C@@H]1O[C@@H]1O[C@H](CO)[C@H](O)[C@H](O)[C@H]1O (some centres unmarked)
endpointValue: 264

Challenge: # return recorded Kd for input CC(=O)N[C@H]1C(O)O[C@H](CO)[C@@H](O[C@@H]2O[C@H](CO)[C@H](O)[C@H](O)[C@H]2O)[C@@H]1O (some centres unmarked)
Response given: 45.6
